Biological target: D39A horcolin (Hordeum vulgare, UniProt Q5U9T2, D39A)
Sequence (Q5U9T2 1-146 D39A): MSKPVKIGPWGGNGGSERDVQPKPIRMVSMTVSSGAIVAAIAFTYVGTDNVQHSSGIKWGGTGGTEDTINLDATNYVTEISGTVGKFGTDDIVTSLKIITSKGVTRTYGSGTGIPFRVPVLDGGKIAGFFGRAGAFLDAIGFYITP
experimental.readout: Kd (mM)
Answer with a number only, understood to be in mM.

Recorded result, `CO[C@H]1O[C@H](CO)[C@@H](O)[C@H](O)[C@@H]1O` , Kd: 55.6

====

molecular target: UniProt Q5U9T2; assay: 1H-15N HSQC-detected NMR titration with TITAN 2D lineshape modeling, wt horcolin; format: binding, Hordeum vulgare (barley); conditions: Kd1, CBS1, wt horcolin, two-site sequential binding model, 25 °C, pH 7.4
experimental.readout: Kd (mM)
Report as a plain number; the unit mM is understood.

// recorded Kd for `CO[C@H]1O[C@H](CO)[C@@H](O)[C@H](O)[C@@H]1O` : 19.9
